Where these numbers come from: patent US7803829B2

Please respond with reported pKd for every item in the list.
Biological target: T315I ABL mutant kinase domain (Homo sapiens, UniProt P00519, T315I)
Construct: ABL kinase domain (corresponding to residues 229-512); GST (N, cleaved yes); PreScission cleavage site (N, cleaved yes); made in house; host or cells: High5 insect cells (baculovirus)
Assay: ATP site-dependent displacement assay, indolinone probe of 3.2
Format: binding
Settings: Tables 5 and 6; probe 3.2; 3 μM highest inhibitor concentration; average of three experiments
From the text: KD values, are the average of three independent experiments.
FYI, pKd means -log10 of a concentration in mol per litre.

Reported pKd, compound CN1CCN(Cc2ccc(C(=O)Nc3n[nH]c4sc(C(=O)NC(C)(C)c5ccccc5)cc34)cc2)CC1 : ____ 8.03

Item CC(C)(NC(=O)c1cc2c(NC(=O)c3ccc(CN4CCCCC4)cc3)n[nH]c2s1)c1cccc(F)c1 has what recorded pKd? 8.20

For the compound shown here, CC(C)(NC(=O)c1cc2c(NC(=O)c3ccc(N4CCOCC4)cc3)n[nH]c2s1)c1ccccc1 , give the reported pKd. 7.93

Given CC(C)(NC(=O)c1cc2c(NC(=O)c3ccc(CN4CCCCC4)cc3)n[nH]c2s1)c1ccccc1Cl , state its recorded pKd. 7.74

State the recorded pKd for this entry: CC(C)(NC(=O)c1cc2c(NC(=O)c3ccc(CN4CCCCC4)cc3)n[nH]c2s1)c1ccccc1F 7.82

Would you kindly share the measured pKd for CC(C)(NC(=O)c1cc2c(NC(=O)c3ccc(CN4CCOCC4)cc3)n[nH]c2s1)c1ccccc1F ? 7.15
